# Assayed System: T1, His-tagged CD73 extracellular domain protein (hCD73 ECD-His) (human, UniProt P21589 27-547)
# T1 construct: Expressed in CHO cells from pTT5-hCD73 ECD-His6, purified on nickel column; also called hCD73 ECD-His6; human CD73 ECD
# T1 sequence: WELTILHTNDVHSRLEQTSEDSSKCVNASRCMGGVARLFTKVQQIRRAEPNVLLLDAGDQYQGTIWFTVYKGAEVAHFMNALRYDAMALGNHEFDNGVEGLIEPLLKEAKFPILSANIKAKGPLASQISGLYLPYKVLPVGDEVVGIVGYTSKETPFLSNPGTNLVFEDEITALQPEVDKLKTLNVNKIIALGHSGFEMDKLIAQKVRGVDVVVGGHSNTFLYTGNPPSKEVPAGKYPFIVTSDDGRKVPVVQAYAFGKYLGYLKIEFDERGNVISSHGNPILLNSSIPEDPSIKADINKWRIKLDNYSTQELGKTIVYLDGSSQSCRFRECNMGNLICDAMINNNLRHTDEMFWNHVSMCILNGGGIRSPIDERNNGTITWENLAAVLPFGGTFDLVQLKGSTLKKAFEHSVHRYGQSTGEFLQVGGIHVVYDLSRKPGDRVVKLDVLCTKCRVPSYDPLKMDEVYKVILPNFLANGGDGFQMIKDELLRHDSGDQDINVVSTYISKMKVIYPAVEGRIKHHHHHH
# Procedure Text: Octet BLI, antibody on AHC sensor, antigen 50-200 nM, 1:1 fit
Quantity: koff (s⁻¹)

* mab041xhIgG1TM (clone 71E10B3), mouse-human chimeric anti-CD73 antibody (antibody, V domains shown, also called mAb041 chimeric antibody) VH: QVQLQQPGTELVKPGASVKLSCKASGYTFTSYWMHWVKQRPGQGLEWIGNINPSNGGTNYNQKFKSKATLTVDKSSNTASMQLSSLTSEDSAVYYCARGDYGYDWYLDVWGTGTTVTVSS VL: DIVLTQSPASLAVSLGQRAIISCKASQSVSFAGPSLMHWYQQKPGQQPKLLIYRTSNLEAGVPTRFSGSGSGTDFTLNIHPVEEDDAATYYCQQNREFPWTFGGGTKLEIK | 4.41e-05
